pIC50 reference
target: UniProt Q13547; assay: Inhibition of recombinant human His-tagged HDAC1 expressed in insect cells preincubated for 10 mins followed by addition of FLUOR DE LYS as fluorescent substrate measured after 1 hr by spectrophotometry
Sequence (Q13547 whole entry): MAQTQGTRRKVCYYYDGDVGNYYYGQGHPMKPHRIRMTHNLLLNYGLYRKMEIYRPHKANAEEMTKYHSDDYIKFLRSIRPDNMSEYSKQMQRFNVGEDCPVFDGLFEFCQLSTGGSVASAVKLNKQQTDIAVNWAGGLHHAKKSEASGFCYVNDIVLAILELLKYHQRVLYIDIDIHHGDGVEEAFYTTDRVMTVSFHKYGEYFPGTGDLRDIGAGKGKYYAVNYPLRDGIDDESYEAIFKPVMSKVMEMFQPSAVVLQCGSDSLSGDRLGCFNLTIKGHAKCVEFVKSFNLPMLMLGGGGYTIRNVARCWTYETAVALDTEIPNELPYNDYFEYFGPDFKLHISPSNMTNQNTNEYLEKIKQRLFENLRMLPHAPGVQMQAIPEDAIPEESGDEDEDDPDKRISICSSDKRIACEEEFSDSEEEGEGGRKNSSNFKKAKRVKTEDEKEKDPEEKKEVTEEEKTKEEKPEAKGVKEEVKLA
# reply with the number alone; pIC50 is -log10 of concentration in mol/L

Consider the reported pIC50 for these compounds:
CNC(=O)CCCCC[C@H](NC(=O)c1cncs1)c1ncc(-c2ccc3ccncc3c2)[nH]1 = 6.22
CNC(=O)CCCCC[C@H](NC(=O)C12CCN(CC1)CC2)c1ncc(-c2cc3ccccc3nc2OC)[nH]1 = 6.60

// pIC50 lookup, key: CNC(=O)CCCCC[C@H](NC(=O)c1cncs1)c1ncc(-c2ccc3[nH]ccc3c2)[nH]1
5.89
